Recorded values, source paper PMC6925622.

method: Clinical study control phase: midazolam pharmacokinetics by CYP3A5 genotype
Type: in vivo, human
run.parameters: human, serum, t1/2 (terminal half-life), geometric mean; midazolam alone (control); CYP3A5*1/*1 (n=6)
assay.readout: half-life (h)
I only need the number, in h, no unit after it.

Documented half-life of Cc1ncc2n1-c1ccc(Cl)cc1C(c1ccccc1F)=NC2 : 2.76

---

method: Clinical study control phase: midazolam pharmacokinetics by CYP3A5 genotype
Format: in vivo, human
run.parameters: human, serum, t1/2 (terminal half-life), geometric mean; midazolam alone (control); CYP3A5 expressers (n=15)
assay.readout: half-life (h)
I only need the number, in h, no unit after it.

Documented half-life of Cc1ncc2n1-c1ccc(Cl)cc1C(c1ccccc1F)=NC2 [midazolam] : 2.75

---

method: Clinical study control phase: midazolam pharmacokinetics by CYP3A5 genotype
Assay type: in vivo, human
run.parameters: human, serum, iv, 0.05 mg/kg, CLsys (systemic clearance), IV midazolam; midazolam alone (control); CYP3A5*3/*7 (n=1)
assay.readout: clearance (mL/min)
I only need the number, in mL/min, no unit after it.

Documented clearance of Cc1ncc2n1-c1ccc(Cl)cc1C(c1ccccc1F)=NC2 : 318

---

method: Clinical study control phase: midazolam pharmacokinetics by CYP3A5 genotype
Assay type: in vivo, human
run.parameters: human, serum, t1/2 (terminal half-life), midazolam alone (control); CYP3A5*3/*7 (n=1)
assay.readout: half-life (h)
I only need the number, in h, no unit after it.

Documented half-life of Cc1ncc2n1-c1ccc(Cl)cc1C(c1ccccc1F)=NC2 : 5.25

---

method: Clinical study control phase: midazolam pharmacokinetics by CYP3A5 genotype
Format: in vivo, human
run.parameters: human, serum, iv, 0.05 mg/kg, CLsys (systemic clearance), IV midazolam; geometric mean; midazolam alone (control); CYP3A5*1/*3 and *1/*6 (n=9)
assay.readout: clearance (mL/min)
I only need the number, in mL/min, no unit after it.

Documented clearance of Cc1ncc2n1-c1ccc(Cl)cc1C(c1ccccc1F)=NC2 : 550

---

method: Clinical study control phase: midazolam pharmacokinetics by CYP3A5 genotype
Format: in vivo, human
run.parameters: human, serum, po, 4 mg, Fpo (oral bioavailability), geometric mean; midazolam alone (control); CYP3A5*1/*3 and *1/*6 (n=9)
assay.readout: bioavailability (%)
I only need the number, in %, no unit after it.

Documented bioavailability of Cc1ncc2n1-c1ccc(Cl)cc1C(c1ccccc1F)=NC2 [midazolam] : 23

---

method: Clinical study control phase: midazolam pharmacokinetics by CYP3A5 genotype
Format: in vivo, human
run.parameters: human, serum, iv, 0.05 mg/kg, CLsys (systemic clearance), IV midazolam; geometric mean; midazolam alone (control); CYP3A5*3/*3 non-expressers (n=8)
assay.readout: clearance (mL/min)
I only need the number, in mL/min, no unit after it.

Documented clearance of Cc1ncc2n1-c1ccc(Cl)cc1C(c1ccccc1F)=NC2 : 402

---

method: Clinical study control phase: midazolam pharmacokinetics by CYP3A5 genotype
Format: in vivo, human
run.parameters: human, serum, t1/2 (terminal half-life), geometric mean; midazolam alone (control); CYP3A5*1/*3 and *1/*6 (n=9)
assay.readout: half-life (h)
I only need the number, in h, no unit after it.

Documented half-life of Cc1ncc2n1-c1ccc(Cl)cc1C(c1ccccc1F)=NC2 [midazolam] : 2.75
